This collection of values is drawn from paper PMC8107043.

# experimental-target: SARS-CoV-2 M^pro (Severe acute respiratory syndrome coronavirus 2, UniProt P0DTD1)
assay-metric: IC50 (nM)
Express the result in nM but write the number alone.

IN: Item COc1cc(C(NC2=NC(=O)C(CC(=O)Nc3ccc(C(=O)O)cc3)S2)c2c(O)[nH]c(=O)[nH]c2=O)ccc1O (stereo not shown) has what recorded IC50?
OUT: 450
